Here, each record is paired with measured IC50 data.
# assayed.system: PTGER4 (EP4) (Homo sapiens (Human))
# Sequence (P35408 whole entry): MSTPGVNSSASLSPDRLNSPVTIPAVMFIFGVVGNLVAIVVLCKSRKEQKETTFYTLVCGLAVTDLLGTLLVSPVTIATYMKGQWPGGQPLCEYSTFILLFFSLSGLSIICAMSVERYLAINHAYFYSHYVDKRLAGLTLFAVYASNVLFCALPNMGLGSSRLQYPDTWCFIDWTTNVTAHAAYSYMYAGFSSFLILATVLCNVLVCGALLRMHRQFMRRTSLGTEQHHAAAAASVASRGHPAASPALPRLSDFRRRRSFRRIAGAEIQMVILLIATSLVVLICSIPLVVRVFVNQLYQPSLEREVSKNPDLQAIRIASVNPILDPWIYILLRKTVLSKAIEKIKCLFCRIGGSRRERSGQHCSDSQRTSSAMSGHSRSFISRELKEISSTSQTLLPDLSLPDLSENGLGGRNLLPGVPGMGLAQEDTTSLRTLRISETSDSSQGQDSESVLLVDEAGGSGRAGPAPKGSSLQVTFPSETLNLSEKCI
# assay.remarks: cell-based
Please reply with the bare figure in µM and do not write the unit itself.

Known results for molecules:
O=C(O)c1ccc(-c2cc(NCCc3cc4c(cc3OC(F)F)OCCO4)ncn2)cc1OC1CCC1 [Example 494] :: 0.209
COc1c(CCNc2cc(-c3ccc(CC(=O)O)c(CC(C)C)c3)ncn2)cc2ccsc2c1F [Example 410] :: 0.113
CCOc1cc(-c2cc(NCCc3ccc4c(c3)OCO4)ncn2)sc1-c1noc(=O)[nH]1 [Example 344] :: 0.039
CCOc1cc(-c2cc(NCCc3cc4ccccc4cc3OC)ncn2)sc1C(=O)O [Ex 9] :: 0.006
COc1cc(-c2cc(NCCc3cc4ccsc4c(F)c3OC)ncn2)ccc1CC(=O)O [Example 485] :: 0.122

Item under review: CCOc1cc(-c2cc(NCCc3c(F)cc4ncccc4c3F)ncn2)sc1-c1noc(=O)[nH]1 [Example 346] . Reported IC50? 0.057

Item under review: CCOc1cc(-c2cc(NCCc3cc4ccsc4cc3C)ncn2)ccc1CC(=O)O [Ex 290] . Reported IC50? 0.438

Item under review: COc1c(CCNc2cc(-c3ccc(C(=O)O)c(SC)c3)ncn2)cc2ccsc2c1F [Example 405] . Reported IC50? 0.079
